Recorded measurements of protein stability index, one per entry
B1: SCNN1D (parent)
chain: FYRLYQDLETHRLPCTSRCPRPCR

# Variants of: B1
# experiment.summary: protein stability index of a GFP-peptide fusion (GPS, HEK-293T) (PSI 1-6); higher = more stable;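 further: lentivirally expressed fusions sorted by FACS into six bins by GFP to DsRed ratio, PSI derived from sequencing read proportions per bin multiplied by bin number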
# cond: c terminus: a fixed tail appended

{"sequence.record": "FYRLYQDLEVHRLPCTSRCPRPCR", "protein stability index": 1.52}
{"sequence.record": "FYRLYQDLETHRLPCTSFCPRPCR", "protein stability index": 1.79}
{"sequence.record": "FYTLYQDLETHRLPCTSRCPRPCR", "protein stability index": 2.65}
{"sequence.record": "FYRLYQDLETHRLPCPSRCPRPCR", "protein stability index": 1.11}
{"sequence.record": "YYRLYQDLETHRLPCTSRCPRPCR", "protein stability index": 2.4}
{"sequence.record": "FYRLYQDLETHRLPCCSRCPRPCR", "protein stability index": 1.66}
{"sequence.record": "FYRQYQDLETHRLPCTSRCPRPCR", "protein stability index": 3.24}
{"sequence.record": "FYRLYWDLETHRLPCTSRCPRPCR", "protein stability index": 3.33}
{"sequence.record": "FDRLYQDLETHRLPCTSRCPRPCR", "protein stability index": 3.56}
{"sequence.record": "FYRLWQDLETHRLPCTSRCPRPCR", "protein stability index": 2.08}
{"sequence.record": "FYRLYQDLETHRLPCTSRCPRKCR", "protein stability index": 2.18}
{"sequence.record": "FYRLYQDLETHRLPCTSRCPNPCR", "protein stability index": 1.68}
{"sequence.record": "FYRLYQDLETHRLPCTSRCARPCR", "protein stability index": 1.98}
{"sequence.record": "FYRLYQDLEFHRLPCTSRCPRPCR", "protein stability index": 1.21}
{"sequence.record": "FYRLYQDLERHRLPCTSRCPRPCR", "protein stability index": 2.88}
{"sequence.record": "FYRLYQDLETHRLPCTARCPRPCR", "protein stability index": 2.46}
{"sequence.record": "FYRLYQDLETHRLPCTSICPRPCR", "protein stability index": 1.15}
{"sequence.record": "FYRLYKDLETHRLPCTSRCPRPCR", "protein stability index": 1.35}
{"sequence.record": "FYRLYQDLETHRFPCTSRCPRPCR", "protein stability index": 2.33}
{"sequence.record": "FYRLYQDLETHRLPCTSRPPRPCR", "protein stability index": 2.03}
{"sequence.record": "FYRLYQNLETHRLPCTSRCPRPCR", "protein stability index": 1.89}
{"sequence.record": "FVRLYQDLETHRLPCTSRCPRPCR", "protein stability index": 2.97}
